- TARGET_ENTITY: HIV-1 Env of pseudovirus CAAN (HIV-1)
- EXPERIMENT_NOTES: cell-based or functional assay
MEASURED_METRIC: IC50, pseudovirus neutralization (TZM-bl assay)
Don't forget the unit after the value.

**Query** What IC50, pseudovirus neutralization (TZM-bl assay) value was documented for this binder, 1489_I13 (PG16) (TCN-120) (antibody, V domains shown) VH: QEQLLESGGGVVQPGGSLRLSCLASGFTFHKYGMHWVRQAPGKGLEWVALISDDGMRKYHSNSMWGRVTISRDNSKNTLYLQFSSLKVEDTAMFFCAREAGGPIWHDDVKYYDFNDGYYNYHYMDVWGKGTTVTVSS VL: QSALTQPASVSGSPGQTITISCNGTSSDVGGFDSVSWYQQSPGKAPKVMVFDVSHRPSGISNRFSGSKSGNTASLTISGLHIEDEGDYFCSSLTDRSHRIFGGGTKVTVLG ?
**Result** 24.9 mg/L
